Ref: PubChem BioAssay AID2060620

# Tested on: 328373-195-R-J1-PDC complex spheroids, viability % test/control;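 also: spheroids exposed to the agents for 7 days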
# assay.text: Anticancer human tumor 328373-195-R-J1-PDC patient-derived head and neck squamous carcinoma cell line growth inhibition [CLK]
# test.settings: second compound 3.16 µM; first compound 0.316 µM; stronger effect = lower value
measured.endpoint: viability, T/C (%)
Numbers only, in %.

Parameter requested: viability, T/C. Apply to each item below.
1. COc1cccc2c1C(=O)c1c(O)c3c(c(O)c1C2=O)CC(O)(C(=O)CO)CC3OC1CC(N)C(O)C(C)O1 (stereo not given) + CN1CCN(c2cc(C(=O)Nc3cc4cc(-c5cnn(C)c5)ccc4cn3)ccn2)CC1
2. COC1C=CCC(C)C(C)S(=O)(=O)NC(=O)c2ccc3c(c2)N(CC2CCC21)CC1(CCCc2cc(Cl)ccc21)CO3 (stereo not given) + CN1CCN(c2cc(C(=O)Nc3cc4cc(-c5cnn(C)c5)ccc4cn3)ccn2)CC1

## Output
[0.93, 2.04]

Parameter requested: viability, T/C. Apply to each item below.
1. CC(CO)NC(=O)c1cc(-c2ccc(Cl)cc2)nn(-c2cnn(C)c2)c1=O (stereo not given) + CN1CCN(c2cc(C(=O)Nc3cc4cc(-c5cnn(C)c5)ccc4cn3)ccn2)CC1
2. CC1COCCN1c1cc(C2(S(C)(=N)=O)CC2)nc(-c2ccnc3[nH]ccc23)n1 (stereo not given) + CN1CCN(c2cc(C(=O)Nc3cc4cc(-c5cnn(C)c5)ccc4cn3)ccn2)CC1
3. CCc1c2c(nc3ccc(O)cc13)-c1cc3c(c(=O)n1C2)COC(=O)[C@]3(O)CC + CNC(=O)c1ccc(Nc2nc(OC3CCCC3)c3c(-c4ccc5nc(C)oc5c4)c[nH]c3n2)c(OC)c1

## Output
1. 1.71
2. 0.16
3. 1.13
